# study system: protein kinase B (UniProt P31749)
# Sequence (P31749 whole entry): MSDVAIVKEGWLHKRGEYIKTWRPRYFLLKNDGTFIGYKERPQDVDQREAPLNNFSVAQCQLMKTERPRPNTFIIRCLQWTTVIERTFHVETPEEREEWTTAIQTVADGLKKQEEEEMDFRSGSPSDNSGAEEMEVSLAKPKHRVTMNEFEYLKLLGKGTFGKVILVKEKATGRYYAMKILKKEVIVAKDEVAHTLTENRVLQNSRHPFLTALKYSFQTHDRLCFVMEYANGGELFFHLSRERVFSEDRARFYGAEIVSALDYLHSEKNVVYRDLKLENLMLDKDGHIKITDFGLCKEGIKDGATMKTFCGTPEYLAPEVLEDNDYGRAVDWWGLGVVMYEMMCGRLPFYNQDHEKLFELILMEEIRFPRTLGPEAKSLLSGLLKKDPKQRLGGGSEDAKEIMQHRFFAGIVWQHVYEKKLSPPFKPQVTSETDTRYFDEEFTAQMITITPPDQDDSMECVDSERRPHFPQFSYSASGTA
# experimental details: cell-based or functional assay
Where no end group is shown, it is not given here. Side-chain parts run from the residue outwards. [ ]: non-standard residue; d: D form. The star is where a group is joined. X1 = 5‑aminoethylsulfonamide isoquinoline, O=S(=O)(NCCN*)c1cccc2cnccc12; hLeu = CC(C)CC[C@H](N)C(=O)O; Nle = CCCC[C@H](N)C(=O)O; Orn = NCCC[C@H](N)C(=O)O; Dab = NCC[C@H](N)C(=O)O; Nva = CCC[C@H](N)C(=O)O; βAla = NCCC(=O)O
result type: % inhibition of kinase activity at 1 µM; PKB-kinase (spa) Assay 1 (%)

> print(dat)
                                     binder  numeric.result
1  RPR[Nle]E([Gly-X1])[Dab][hLeu] (not fully specified (C-terminus)) [TY-60020-58]              89
2  RPR[Nle]E([Gly-X1])[Dab]F (not fully specified (C-terminus)) [TY-60020-57]              92
3  RPR[Orn]E(X1)[Dab][hLeu] (not fully specified (C-terminus)) [TY-60020-10]              45

P. RPR[Nle]E([βAla-X1])[Nva][hLeu] (not fully specified (C-terminus)) [TY-60020-96]
Q. RPR[Orn]E([Gly-X1])[Dab][hLeu] (not fully specified (C-terminus)) [TY-60020-42]
Could you tell me which of these two has the smaller % inhibition of kinase activity at 1 µM; PKB-kinase (spa) Assay 1 figure? First: P Second: Q Provide the label of your selected option as the answer. P

Reference source for all entries: patent US7407939
